test_protocol: Pharmacokinetic study in rats after oral administration of FA decoction
Type: in vivo, Sprague-Dawley rats
conditions_used: male, Sprague-Dawley, oral; rat plasma, 30 g/kg group
value_type: Cmax (ng/mL)
Give bare numbers, in ng/mL.

Query :: State its Cmax: COc1ccc([C@@H]2CC(=O)c3c(O)cc(O)cc3O2)cc1O
Result :: 174

* * *

test_protocol: Stability of the analytical solution of FA decoction at environmental temperature
Assay type: physicochemical
conditions_used: FA decoction 1.7 g/mL, 24h
value_type: Stability in FA decoction, Content (mg/mL)
One number for each entry, in mg/mL.

Worked examples follow.
# compound, Stability in FA decoction, Content, mg/mL
measured = [
    ("COc1ccc([C@@H]2CC(=O)c3c(O)cc(O[C@@H]4O[C@H](CO[C@@H]5O[C@@H](C)[C@H](O)[C@@H](O)[C@H]5O)[C@@H](O)[C@H](O)[C@H]4O)cc3O2)cc1O [hesperidin]", 4.82),
    ("O=C1C[C@@H](c2ccc(O)cc2)Oc2cc(O)cc(O)c21 [Naringenin, naringenin]", 0.25),
]

Query :: State its Stability in FA decoction, Content: C[C@@H]1O[C@@H](O[C@H]2[C@H](Oc3cc(O)c4c(c3)O[C@H](c3ccc(O)cc3)CC4=O)O[C@H](CO)[C@@H](O)[C@@H]2O)[C@H](O)[C@H](O)[C@H]1O [naringin]
Result :: 25.15
